# System: CAKI-1
# METHOD DESCRIPTION: NCI tumour cell line growth inhibition, 48 h
Active and inactive are the calls of the source. Cut-off read from the data, not from the text of the source: active = GI50 up to about 1.1 µM and inactive = higher.
Give measured GI50 for each item. Keep answers brief.

Q) Which GI50 is listed for CC1CCCc2c(-c3ccc(Cl)cc3)nc(N)c(C#N)c21 (stereo not given) ?
A) 58.2 µM (inactive)

Q) Name the recorded GI50 for `Cc1cc(C)nc(NS(=O)(=O)c2ccc(NC(=O)c3c4ccccc4nc4ccccc34)cc2)n1` .
A) 87.3 µM (inactive)

Q) If you can, please state the reported GI50 value of `COC(OC)[C@@H]1OC[C@@H](O)[C@@H]1n1cnc2c(N)ncnc21` .
A) > 100 µM (inactive)

Q) What measured GI50 goes with CCOC(=O)c1cc2c3c(c(C(C)=O)c(O)c2[nH]1)N(CC(C)CC)CC3 (stereo not given) ?
A) 64.9 µM (inactive)

Q) Returns the measured GI50 for the input molecule. Input: `COC(=O)c1c2n(c3ccccc13)C[C@H]1OC(C)(C)O[C@@H]21`
A) > 65.6 µM (inactive)

Q) Requested field: GI50. Item: `Cn1c2c([N+](=O)[O-])cccc2c(=O)c2c(O)cc3c(c21)C=CC(C)(C)O3`
A) 18.7 µM (inactive)

Q) Consider the molecule shown here: `Cc1ccc(C(=O)O)cc1S(=O)(=O)Nn1cnc2ccc(S(=O)(=O)Nc3ccccc3C(=O)O)cc2c1=O` What is its recorded GI50?
A) > 100 µM (inactive)

Q) // query GI50 value for entry `Cc1cc(-c2nc3ccc(F)cc3s2)ccc1NC(=O)[C@H](C)N`
A) 8.18 µM (inactive)

Q) # input molecule: O=C1NC(c2cccc3ccccc23)Nc2ccc(O)cc21 (stereo not given) ; wanted: its GI50
A) 30.5 µM (inactive)

Q) Please look up its GI50: COc1ccc(C(SC2C(O)C(CO)OC2n2ccc(N)nc2=O)(c2ccccc2)c2ccc(OC)cc2)cc1 (stereo not given)
A) 31.3 µM (inactive)

Q) Give the measured GI50 of `C[Si](C)(C)C(CCCCSc1ccccc1)(Sc1ccccc1)Sc1ccccc1` .
A) > 100 µM (inactive)

Q) Which GI50 is reported for this molecule? `O=S(=O)(Nc1nccs1)c1ccc([As](=O)(O)O)cc1`
A) > 100 µM (inactive)

Q) What value of measured GI50 is listed for `Brc1ccc2[nH]cc([C@H]3CN[C@@H](c4c[nH]c5ccc(Br)cc45)CN3)c2c1` ?
A) 1.82 µM (inactive)

Q) Entry `CCOC(=O)C1(C(=O)OCC)CCCN1C(=O)[C@H](CNC(=O)OC(C)(C)C)NC(=O)OCc1ccccc1` : reported GI50 = ?
A) > 100 µM (inactive)

Q) What value of measured GI50 is listed for COc1cccc(C2c3cc4c(cc3OC(N3CCCC3)C2C)OCO4)c1OC (stereo not given) ?
A) 0.561 µM (active)

Q) GET /values?readout=GI50&item= `COC(=O)c1sc(=O)sc1SCc1cccc(CSc2sc(=O)sc2C(=O)OC)c1`
A) 28.4 µM (inactive)

Q) Quick check: GI50 of `CC(C)[C@H](NC(=O)[C@@H](O)[C@H](N)Cc1ccccc1)C(=O)N[C@@H](Cc1ccccc1)C(=O)O` ?
A) > 100 µM (inactive)

Q) # get_value(readout='GI50', item= CC(Oc1ccc(Cl)cc1Cl)C(=O)NN1C(=O)CSC1c1ccc(Cl)cc1 (stereo not given) )
A) 18.9 µM (inactive)

Q) Form field: reported GI50 of CSc1ncnc2c1cnn2Cc1cn(COCC(O)CO)nn1 (stereo not given)
A) > 100 µM (inactive)

Q) Report GI50 for Cc1cc(S(=O)(=O)Nc2nc(N)nc(N3N=CCC3C)n2)c(S)cc1Cl (stereo not given) please.
A) > 10 µM (inactive)
